- SYSTEM UNDER TEST: SARS-CoV-2 RBD extracellular domain expressed with a C-terminal myc-myc-hexahistidine tag (SARS-COV-2 RBD-MMH) (SARS-CoV-2)
- CONDITION LABEL: remark: other sources report otherwise
ENDPOINT LABEL: t½

// known answers, use as guide
{"BINDER": "mAb11008 (antibody, V domains shown) VH: EVQLVESGGGLVQPGGSLRLSCAASGFTVSSNYMTWVRQAPGKGLEWVSVIYSGGSTFYADSVKGRFTISRHNSENTLYLQMNSLRAEDTAVYYCARDLAAAGTDYWGQGALVTVSS VL: DIQLTQSPSFLSASVGDRVTITCWASQGISSYLAWYQQKPGKAPKLLIYAASTLQSGVPSRFSGSGSGTEFTLTISSLQPDDFATYYCQHLNSYLYTFGQGTKLEIK", "ENDPOINT LABEL": "t½", "RECORDED MEASUREMENT": "2.9 min"}
{"BINDER": "mAb10998 (antibody, V domains shown) VH: EVQLVESGGGLVHPGGSLRLSCAASGLTVSSNYMSWVRQAPGKGLEWVSVIYSGGSTYYADSVKGRFTISRHNSKNTLFLQMNSLRAEDTAVYYCARDRPITGTTLDVWGQGTTVTVSS VL: DIQMTQSPSSLFASVGDRVTITCRASQSISSYLNWYQQKPGKAPKLLIYAASSLQSGVPSRFSGSGSGTDFTLTISSLQPEDFAFYYCQQTYSTPPITFGQGTRLEIK", "ENDPOINT LABEL": "t½", "RECORDED MEASUREMENT": "0.5 min"}
{"BINDER": "mAb11004 (antibody, V domains shown) VH: QVQLVESGGGVVQPGRSLRLSCVASGFTFSIYGMDWVRQAPGKGLEWVAVISYDGSNKYYADSVKGRFTISRDNSKNTLYLQMNSLRPEDTAVYYCAKDREAAADAFDIWGQGTMVTVSS VL: DIQMTQSPSSVSASVGDRVTITCRASQGISSWLAWYQQKPGKAPKLLIYAASSLHSGVPSRFSGSGSGTDFTLTISSLQPEDFATYYCQQANSFRLTFGGGTKVEIK", "ENDPOINT LABEL": "t½", "RECORDED MEASUREMENT": "3.7 min"}

# binder mAb11006 (antibody, V domains shown) VH: EVQLVESGGGLVQPGGSLRLSCAASGFIVSRNYMSWVRQAPGKGLEWVSVIYSGGSTFYADSVKGRFTISRHNSKNTLYLQMNSLKAEDTAVYYCARELRGYFDYWGQGTLVTVSS VL: DIQLTQSPSFLSASVGDRVTITCWASQGISSYLAWYQQKPGKAPKLLIYAASTLQSGVPSRFSGSGSGTEFTLTISSLQPEDFATYYCQLLNSYPYTFGQGTKLEIK ; its t½ = 31.5 min
